# target_or_system: T1, CD19 (human, UniProt P15391)
# T1 chain: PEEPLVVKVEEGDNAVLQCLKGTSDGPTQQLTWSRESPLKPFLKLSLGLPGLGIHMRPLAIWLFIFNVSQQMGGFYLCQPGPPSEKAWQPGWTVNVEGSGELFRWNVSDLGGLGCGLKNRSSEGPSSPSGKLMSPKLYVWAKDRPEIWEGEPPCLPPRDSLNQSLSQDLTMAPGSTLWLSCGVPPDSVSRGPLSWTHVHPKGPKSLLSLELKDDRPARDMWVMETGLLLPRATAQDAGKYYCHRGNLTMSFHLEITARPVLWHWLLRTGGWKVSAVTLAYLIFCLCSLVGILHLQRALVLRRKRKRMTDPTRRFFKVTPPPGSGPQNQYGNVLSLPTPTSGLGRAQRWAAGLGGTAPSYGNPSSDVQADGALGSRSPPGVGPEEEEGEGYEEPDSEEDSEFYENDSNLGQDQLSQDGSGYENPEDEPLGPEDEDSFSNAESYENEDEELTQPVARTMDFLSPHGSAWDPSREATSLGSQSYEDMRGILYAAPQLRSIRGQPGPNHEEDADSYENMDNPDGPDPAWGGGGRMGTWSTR
# assay_notes: ELISA
readout: pEC50
Scale explanation: pEC50 corresponds to minus log10 of a concentration expressed in moles per litre.

# binder DVD014 CD19 arm (antibody, V domains shown, DVD-Ig outer) VH: QVQLQQSGAELVRPGSSVKISCKASGYAFSSYWMNWVKQRPGQGLEWIGQIWPGDGDTNYNGKFKGKATLTADESSSTAYMQLSSLASEDSAVYFCARRETTTVGRYYYAMDYWGQGTSVTVSS VL: DILLTQTPASLAVSLGQRATISCKASQSVDYDGDSYLNWYQQIPGQPPKLLIYDASNLVSGIPPRFSGSGSGTDFTLNIHPVEKVDAATYHCQQSTEDPWTFGGGTKLEIKR ; its pEC50 = 9.92
